# EXPERIMENT_SUMMARY: β-cyclodextrin dissolution rate in deionized water by refractive index
# Type: physicochemical
# TEST_PARAMETERS: time 2 min; 350 mg in 50 mL deionized water
Listing: β-Cyclodextrin Dissolved (%) of selected compounds
Form entry: value (%) — number only.

Guide cases for β-Cyclodextrin Dissolved (%), answers given:
compound="OC[C@H]1O[C@@H]2O[C@H]3[C@H](O)[C@@H](O)[C@@H](O[C@H]4[C@H](O)[C@@H](O)[C@@H](O[C@H]5[C@H](O)[C@@H](O)[C@@H](O[C@H]6[C@H](O)[C@@H](O)[C@@H](O[C@H]7[C@H](O)[C@@H](O)[C@@H](O[C@H]8[C@H](O)[C@@H](O)[C@@H](O[C@H]1[C@H](O)[C@H]2O)O[C@@H]8CO)O[C@@H]7CO)O[C@@H]6CO)O[C@@H]5CO)O[C@@H]4CO)O[C@@H]3CO [249 μm, β-cyclodextrin]" experimental_result=26
compound="OC[C@H]1O[C@@H]2O[C@H]3[C@H](O)[C@@H](O)[C@@H](O[C@H]4[C@H](O)[C@@H](O)[C@@H](O[C@H]5[C@H](O)[C@@H](O)[C@@H](O[C@H]6[C@H](O)[C@@H](O)[C@@H](O[C@H]7[C@H](O)[C@@H](O)[C@@H](O[C@H]8[C@H](O)[C@@H](O)[C@@H](O[C@H]1[C@H](O)[C@H]2O)O[C@@H]8CO)O[C@@H]7CO)O[C@@H]6CO)O[C@@H]5CO)O[C@@H]4CO)O[C@@H]3CO [183 μm, β-cyclodextrin]" experimental_result=52
compound="OC[C@H]1O[C@@H]2O[C@H]3[C@H](O)[C@@H](O)[C@@H](O[C@H]4[C@H](O)[C@@H](O)[C@@H](O[C@H]5[C@H](O)[C@@H](O)[C@@H](O[C@H]6[C@H](O)[C@@H](O)[C@@H](O[C@H]7[C@H](O)[C@@H](O)[C@@H](O[C@H]8[C@H](O)[C@@H](O)[C@@H](O[C@H]1[C@H](O)[C@H]2O)O[C@@H]8CO)O[C@@H]7CO)O[C@@H]6CO)O[C@@H]5CO)O[C@@H]4CO)O[C@@H]3CO [57 μm, β-cyclodextrin]" experimental_result=102

Query: Fill blank: measured β-Cyclodextrin Dissolved (%) of the compound OC[C@H]1O[C@@H]2O[C@H]3[C@H](O)[C@@H](O)[C@@H](O[C@H]4[C@H](O)[C@@H](O)[C@@H](O[C@H]5[C@H](O)[C@@H](O)[C@@H](O[C@H]6[C@H](O)[C@@H](O)[C@@H](O[C@H]7[C@H](O)[C@@H](O)[C@@H](O[C@H]8[C@H](O)[C@@H](O)[C@@H](O[C@H]1[C@H](O)[C@H]2O)O[C@@H]8CO)O[C@@H]7CO)O[C@@H]6CO)O[C@@H]5CO)O[C@@H]4CO)O[C@@H]3CO [156 μm, β-cyclodextrin] is ____.
Result: 81

====

# EXPERIMENT_SUMMARY: β-cyclodextrin dissolution rate in deionized water by refractive index
# Assay type: physicochemical
# TEST_PARAMETERS: time 5 min; 350 mg in 50 mL deionized water
MEASURED_PROPERTY: β-Cyclodextrin Dissolved (%)
Field format: number, assumed %, no unit text.

compound="OC[C@H]1O[C@@H]2O[C@H]3[C@H](O)[C@@H](O)[C@@H](O[C@H]4[C@H](O)[C@@H](O)[C@@H](O[C@H]5[C@H](O)[C@@H](O)[C@@H](O[C@H]6[C@H](O)[C@@H](O)[C@@H](O[C@H]7[C@H](O)[C@@H](O)[C@@H](O[C@H]8[C@H](O)[C@@H](O)[C@@H](O[C@H]1[C@H](O)[C@H]2O)O[C@@H]8CO)O[C@@H]7CO)O[C@@H]6CO)O[C@@H]5CO)O[C@@H]4CO)O[C@@H]3CO [249 μm, β-cyclodextrin]" measured_property="β-Cyclodextrin Dissolved (%)" experimental_result=67
compound="OC[C@H]1O[C@@H]2O[C@H]3[C@H](O)[C@@H](O)[C@@H](O[C@H]4[C@H](O)[C@@H](O)[C@@H](O[C@H]5[C@H](O)[C@@H](O)[C@@H](O[C@H]6[C@H](O)[C@@H](O)[C@@H](O[C@H]7[C@H](O)[C@@H](O)[C@@H](O[C@H]8[C@H](O)[C@@H](O)[C@@H](O[C@H]1[C@H](O)[C@H]2O)O[C@@H]8CO)O[C@@H]7CO)O[C@@H]6CO)O[C@@H]5CO)O[C@@H]4CO)O[C@@H]3CO [156 μm, β-cyclodextrin]" measured_property="β-Cyclodextrin Dissolved (%)" experimental_result=95
compound="OC[C@H]1O[C@@H]2O[C@H]3[C@H](O)[C@@H](O)[C@@H](O[C@H]4[C@H](O)[C@@H](O)[C@@H](O[C@H]5[C@H](O)[C@@H](O)[C@@H](O[C@H]6[C@H](O)[C@@H](O)[C@@H](O[C@H]7[C@H](O)[C@@H](O)[C@@H](O[C@H]8[C@H](O)[C@@H](O)[C@@H](O[C@H]1[C@H](O)[C@H]2O)O[C@@H]8CO)O[C@@H]7CO)O[C@@H]6CO)O[C@@H]5CO)O[C@@H]4CO)O[C@@H]3CO [183 μm, β-cyclodextrin]" measured_property="β-Cyclodextrin Dissolved (%)" experimental_result=71

Query: # query: β-Cyclodextrin Dissolved (%) of entry OC[C@H]1O[C@@H]2O[C@H]3[C@H](O)[C@@H](O)[C@@H](O[C@H]4[C@H](O)[C@@H](O)[C@@H](O[C@H]5[C@H](O)[C@@H](O)[C@@H](O[C@H]6[C@H](O)[C@@H](O)[C@@H](O[C@H]7[C@H](O)[C@@H](O)[C@@H](O[C@H]8[C@H](O)[C@@H](O)[C@@H](O[C@H]1[C@H](O)[C@H]2O)O[C@@H]8CO)O[C@@H]7CO)O[C@@H]6CO)O[C@@H]5CO)O[C@@H]4CO)O[C@@H]3CO [57 μm, β-cyclodextrin]
Result: 100
